Data provenance: patent US20240166738A1

- target_or_test_system: human TMEM106B (human, UniProt Q9NUM4 2-274); further: test concentration or dose not given here
- assay_explanation: cell-based or functional assay
Listed next: entries and their corresponding % Protection from CPE.
Record the value in %, omitting the unit from your answer.

Examples with answers:
binder	% Protection from CPE, %
TM-3 (antibody, V domains shown) VH: QVTLKESGPGIVQPSQTLSLTCSFSGFSLNTLGRGVGWIRQPSGKGLEWLAKIWWNDDKFYYPALKSRLTISKDTSKNQIFLKIANVDTADSATYYCARIAGGTGAAYWGQGTTLTVSS VL: DIVMTQAAFSNPVTLGTSASISCRSSKSLLHSNGITYLYWYLQKPGQSPQLLISQMSSLASGVPDRFSSGGSGTDFTLRISRVEAEDVGVFYCAQNLELPWTFGGGTKLELK	97.2
TM-64 (antibody, V domains shown) VH: QVQLQQPGAELVKPGASVKLSCKASGYTFTSYWMHWVKQRPGHGLEWIGNIDPSDSDTHYNQNFRGKATLTVDKFSTTAYMHLSSLTSEDSAVYYCARSRGGTYDYGEAMDYWGQGTSVTVSS VL: DIVMTQAAPSVPVTPGESVSISCRSSKSLLHTNGNTYLFWFLQRPGRSPQLLIYRMSNLASGVPDRFSGSGSGTAFTLRISRVEAEDVGVYYCMQHLEYPFTFGSGTKLEIK	89.3
TM-42 (antibody, V domains shown) VH: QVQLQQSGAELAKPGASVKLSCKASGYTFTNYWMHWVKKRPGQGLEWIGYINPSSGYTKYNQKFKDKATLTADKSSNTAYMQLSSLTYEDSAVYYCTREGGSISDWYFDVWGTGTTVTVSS VL: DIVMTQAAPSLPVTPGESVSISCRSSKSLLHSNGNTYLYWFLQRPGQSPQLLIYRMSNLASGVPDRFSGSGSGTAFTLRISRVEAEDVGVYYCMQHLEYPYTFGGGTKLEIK	28.4
TM-8 (antibody, V domains shown, mouse hybridoma mAb) VH: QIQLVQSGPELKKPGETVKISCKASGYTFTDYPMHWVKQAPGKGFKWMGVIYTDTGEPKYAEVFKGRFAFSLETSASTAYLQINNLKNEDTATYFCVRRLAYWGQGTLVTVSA VL: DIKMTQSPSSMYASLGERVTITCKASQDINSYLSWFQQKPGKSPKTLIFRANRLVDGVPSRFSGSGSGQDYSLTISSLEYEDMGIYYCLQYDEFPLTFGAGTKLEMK	3.8

Measured % Protection from CPE of TM-47 (antibody, V domains shown) VH: QVQLKESGPVLVAPSQSLSITCTVSGFSLTNYGVHWVRQPPGKGLEWLGVIWAGGNTNYNSALMSRLSISKDNSKSQVFLKMNSLQTDDTAMYYCAKEAKLLRSYAMDYWGQGTSVTVSS VL: DIVMTQSPSSLTVTAGEKVTMSCKSSQSLLNSGNQKNYLTWYQQKPGQPPKLLIYWASTRESGVPDRFTGSGSGTDFTLTISSVQAEDLAVYYCQNDYSYPLTFGAGTKLEIK : 3.8

What the record says about TM-31 (antibody, V domains shown, mouse hybridoma mAb) VH: QVQLQQSGAELAKPGASVKVSCKASGYTFISYWMNWVKQRPGQGLEWIGYINPTSGYTRYNQKFKDKATLTADKSSSTAYMQLSSLTYEDSAVYYCARSPPTVVLIGYFDYWGQGTTLTVSS VL: DIKMTQSPSSMYASLGERVTFTCKASQDINSYLSWFQQKPGKSPKTLIYRGNGLVDGVPSRFSGSGSGQDYSLTISSLEYEDMGIYYCLQYDEFPFTFASGTKLEIK : % Protection from CPE is 7.7

Lab note: TM-45 (antibody, V domains shown) VH: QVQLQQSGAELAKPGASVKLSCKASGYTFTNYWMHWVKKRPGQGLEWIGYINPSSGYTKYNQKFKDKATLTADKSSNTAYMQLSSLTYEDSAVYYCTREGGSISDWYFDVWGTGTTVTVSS VL: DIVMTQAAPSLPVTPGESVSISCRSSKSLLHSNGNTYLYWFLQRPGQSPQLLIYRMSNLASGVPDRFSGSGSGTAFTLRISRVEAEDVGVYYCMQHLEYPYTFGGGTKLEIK gave % Protection from CPE of 32.6

Field % Protection from CPE (entry TM-61 (antibody, V domains shown) VH: QVQLQQSGAELAKPGASVKLSCKASGYTFTNYWMNWVKQRPGQGLEWIGYINPSSDYTKYNQNFKDKATLTADKSSSTAYMQLNSLTYEDSAVYYCTRWGGSRSYWYFDVWGAGTTVTVSS VL: DIVMTQSPSSLSASAGEKVTMSCKSSQSLLNSGNQKNYLAWYQQKPGQSPKLLIYGASTRESGVPDRFTGSGSGTDFTLTISSVQAEDLAVYYCQNDSNYPFTFGGGTKLEMK ) reads 94.1
